This collection of values is drawn from a protein production outcome set (Wang et al. 2014).

experiment: label from the status in PepcDB records
endpoint name: protein production

biopolymer sequence	result
MEDERIKLLFKEKALEILMTIYYESLGGNDVYIQYIASKVNSPHSYVWLIIKKFEEAKMVECELEGRTKIIRLTDKGQKIAQQIKSIIDIMENDT	not failed
MSNVAQYKDGTYIGKAQGKAAEVEVTVSIKEGKIANAEVLKHGDTEAMMLSATDQIVPELIEKQDINKVDAVTGATLSSQGVINAVKQALEQAKVTPLEHHHHHH	not failed

* * *

experiment: label from the status in PepcDB records

biopolymer sequence	protein production
MPNYINYPSWLHPEVIQGIPITWYSLSYILIILISYKFIWYQIQSDNVDIKKEDYEIFMFSLVLGAILGGRLASTLVYDKSGIYYSNPWLILLPFDQHWNFTGFRGMAIHGGFLGAIIAPLITINTNLKNTNVQKYFLKLTDYGSIAFSSGYILGRLANFANAELYGRVMKGGIIFPNAEPFDTNIPGVKEFASSVGLEISPHDLLINLPRIPSQLIEGFFEGPVTFLLLWFLFKKIKKYDGFIFGVYVMLYAFFRFFIEYLREPDKELGFIITYKPITSLSEFSFLNISMGQILSLTLMLSGLIWIIVTKKIADKKIKNNTNLAYKN	failed
MEATKERVGLLDTILPPALADAGLEDCALPPESIQEAFRKAANAVKSRAASIFDHEEEDGCLADPIPETADKIIVGGDNERDTGPCLAGKGIEKLAESKQAGDLVVAGEGEEGKSCVDGLKDLDVEGIERSSEKKDQSDEDEEEEMKPILVEGFV	failed
MTYNKIMSAAESMEDGIEDMENNLESWGDDMNEYFGDEYEKAETISLDGIKNFFLKAEVGEVKIEISDRADEASYKIQRINPKYFDVEKKGDTISFEDNTPSKFFKNLGFNFKNNSPKIYISLPRNIVFNNFEIKSGVGELDIHDINVEKFNLSAGVGEVNIYDAKISKDAEIKAGVGEVNFKDSTVTNMDIKSGVGSFSFSGTALGKTSVKGGIGEVDLKINGSEKDYDFDVSAGLGEVIINGKKSKTFLADRQKSGSIAQNSITVKGGIGSISIRFKNLEHHHHHH	failed
